System: OVCAR-5 ovarian
Protocol: NCI tumour cell line growth inhibition, 48 h
Observation type: TGI (µM)
Write the value in µM as a bare number.

[in] I am curious: what TGI value has been reported for O=C(Nc1ccc(Cl)c([N+](=O)[O-])c1)Nc1nc2ccccc2s1 ?
[out] 19.3

[in] Subsequent entry: COc1ccc(CN2C(=O)/C(=C\c3cc(OC)c(OC)c(OC)c3)c3cc(OC)ccc32)cc1
[out] 5.51

[in] Subsequent entry: CCCCCC(CN1CCOCC1)C(=O)/C=C/c1ccccc1 (stereo unspecified)
[out] 11.1

[in] Subsequent entry: CN(C)CCNC(=O)c1ccc(Nc2nc3ccccc3c3occc23)cc1
[out] 24.6

[in] Subsequent entry: CCn1c(=O)c(-c2ccn[nH]2)cc2c(C)nc(N)nc21
[out] 10.6

Data provenance: PubChem BioAssay (NCI)
